Ref: the supplement of paper PMC7877785

assay: self-splicing fitness, log relative to wild type (ln ratio); higher = more splicing; Tetrahymena group I intron in knt gene, E. coli kanamycin selection, DiMSum; sequences stand for … in CUCUCU…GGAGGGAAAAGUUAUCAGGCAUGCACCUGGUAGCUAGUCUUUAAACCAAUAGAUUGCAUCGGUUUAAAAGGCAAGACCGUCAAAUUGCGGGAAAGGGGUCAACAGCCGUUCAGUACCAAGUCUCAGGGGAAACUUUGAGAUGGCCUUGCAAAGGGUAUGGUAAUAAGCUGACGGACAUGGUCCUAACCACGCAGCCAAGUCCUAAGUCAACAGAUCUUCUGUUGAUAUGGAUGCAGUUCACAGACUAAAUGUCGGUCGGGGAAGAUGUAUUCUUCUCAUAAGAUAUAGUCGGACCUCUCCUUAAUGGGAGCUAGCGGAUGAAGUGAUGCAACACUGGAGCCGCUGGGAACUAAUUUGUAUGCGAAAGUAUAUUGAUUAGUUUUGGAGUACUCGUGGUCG; conditions: 37 °C;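 note: selection with 25 µg/mL kanamycin versus none on LB agar overnight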
Note to self: values exactly at -1 are yes. So self-splicing fitness (ln) at or above -1 is yes, below is no.

residue.sequence	answer.label
GUUCAGCAAUAUUACGCAUU	yes
CGUUAGCAAUAUUACGUCCC	yes
GGUCAGCAAUAUUACGGAUG	yes
GAGGAGCAAUAUUACGGGUA	no
AGCGAGCAAUAUUACGACGG	no
CCAGAGCAAUAUUACGGUAU	no
UUCGAGCAAUAUUACGUAGG	no
CGCUAGCAAUAUUACGCACU	yes
AAUGAGCAAUAUUACGAACA	no
AUUCAGCAAUAUUACGGUAC	yes
AGAAAGCAAUAUUACGGUUU	yes
AACAAGCAAUAUUACGGUUU	no
AUGUAGCAAUAUUACGUGUG	no
CCCCAGCAAUAUUACGUGCG	no
CGGUAGCAAUAUUACGCUCG	no
